The values you see were collected from patent US10189828B2.

target_under_test: human σ1 receptor and human μ-opioid receptor
method_notes: μ and σ1 dual binding: human σ1 receptor radioligand assay ([3H](+)-pentazocine, transfected HEK-293 membranes) and human μ-opioid receptor radioligand assay ([3H]-DAMGO, transfected CHO-K1 membranes)
study_conditions: one combined class for Ki-μ and Ki-σ1
Measured Ki accompanies every entry in the list below.

compound: Cn1nccc1C(c1ccccc1)N1CCN(CCc2cccnc2)CC1 (stereo not drawn)
Ki: ≥ 500 nM
//
compound: Cn1nccc1C(c1ccccc1)N1CCN(CCc2ccc(F)cn2)CC1 (stereo not drawn)
Ki: ≥ 500 nM
//
compound: Cn1nccc1C(c1ccccc1)N1CCN(CCc2csc(NC(=O)OC(C)(C)C)n2)CC1 (stereo not drawn)
Ki: ≥ 500 nM

---

Reported values of pKi for individual entries
target_under_test: human σ1 receptor and human μ-opioid receptor
method_notes: μ and σ1 dual binding: human σ1 receptor radioligand assay ([3H](+)-pentazocine, transfected HEK-293 membranes) and human μ-opioid receptor radioligand assay ([3H]-DAMGO, transfected CHO-K1 membranes)
pKi: −log10 of the molar value.

compound: Cn1nccc1C(c1ccc(F)cn1)N1CCN(CCc2ccccc2)CC1 (stereo not drawn) [Example 12]
pKi: > 6.30
//
compound: Cn1nccc1C(c1ccc(F)cn1)N1CCN(CCc2cccc(F)c2)CC1 (stereo not drawn) [Example 38]
pKi: > 6.30
//
compound: Cn1nccc1C(c1cccnc1C(F)(F)F)N1CCN(CCc2ccccc2)CC1 (stereo not drawn) [Example 17]
pKi: > 6.30
//
compound: Cn1nccc1C(c1ccccc1)N1CCN(CCc2cccc(F)c2)CC1 (stereo not drawn) [Example 35]
pKi: > 6.30
//
compound: COc1cccc(CCN2CCN(C(c3ccccc3)c3ccnn3C)CC2)c1 (stereo not drawn) [Example 21]
pKi: > 6.30
//
compound: Cn1nccc1C(c1cccc(O)c1)N1CCN(CCc2ccccc2)CC1 (stereo not drawn) [Example 29]
pKi: > 6.30
//
compound: COc1ccc(C(c2ccnn2C)N2CCN(CCc3ccccc3)CC2)cc1 (stereo not drawn) [Example 9]
pKi: > 6.30
//
compound: Cn1nccc1C(c1ccccc1)N1CCN(CCc2ccccc2F)CC1 (stereo not drawn) [Example 22]
pKi: > 7.00
//
compound: Cn1nccc1C(c1ccccc1)N1CCN(CCc2cccc(O)c2)CC1 (stereo not drawn) [Example 30]
pKi: > 7.00
//
compound: Cn1nccc1C(c1ccccc1)N1CCN(CCc2ccccc2)CC1 (stereo not drawn) [Example 3]
pKi: > 7.00
//
compound: COc1ccccc1C(c1ccnn1C)N1CCN(CCc2ccccc2)CC1 (stereo not drawn) [Example 8]
pKi: > 6.30
//
compound: COc1cccc(C(c2ccnn2C)N2CCN(CCc3ccccc3)CC2)c1 (stereo not drawn) [Example 7]
pKi: > 7.00
